# experimental.target: Methionine aminopeptidase 2 (Homo sapiens) (UniProt P50579)
# Sequence (P50579 2-478 limits assumed): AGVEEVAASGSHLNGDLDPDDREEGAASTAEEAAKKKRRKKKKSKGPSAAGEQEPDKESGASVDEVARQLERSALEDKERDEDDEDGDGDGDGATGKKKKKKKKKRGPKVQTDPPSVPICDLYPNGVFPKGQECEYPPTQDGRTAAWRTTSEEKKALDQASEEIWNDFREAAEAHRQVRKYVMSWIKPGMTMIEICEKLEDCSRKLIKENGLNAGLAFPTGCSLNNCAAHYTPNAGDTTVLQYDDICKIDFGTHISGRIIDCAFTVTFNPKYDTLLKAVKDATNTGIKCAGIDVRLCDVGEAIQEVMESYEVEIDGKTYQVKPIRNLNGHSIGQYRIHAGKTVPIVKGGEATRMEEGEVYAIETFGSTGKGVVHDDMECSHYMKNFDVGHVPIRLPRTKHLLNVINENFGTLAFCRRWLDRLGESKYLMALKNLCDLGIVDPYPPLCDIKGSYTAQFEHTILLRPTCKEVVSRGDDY
# assay.protocol: Inhibition of MetAP2 (unknown origin) using Met-AMC as substrate assessed as residual activity at 200 nM after 8 hrs
readout.label: Activity (%)
Quick note: give the figure in %, leave out the unit.

Some solved entries appear below for comparison.
>>> print(df.to_string())
                                   compound  reported_value
0  C=C([C@H](O)CC=C(C)C)[C@H]1[C@H](OC)[C@H](OC(=O)N[C@@H](C(N)=O)C(C)C)CC[C@]1(O)CCl              58
1  CO[C@H]1[C@@H]([C@@]2(C)O[C@@H]2CC=C(C)C)[C@]2(CC[C@H]1OC(=O)N[C@@H](C(N)=O)C(C)C)CO2               3
2  CO[C@@H]1[C@H](OC(=O)N[C@@H](C(N)=O)C(C)C)CC[C@]2(O)CO[C@](C)([C@H](O)CC=C(C)C)[C@@H]12             107
3  CO[C@@H]1[C@H](OC(=O)N[C@@H](C(N)=O)C(C)C)CC[C@@]2(O)CO[C@](C)([C@H](O)CC=C(C)C)[C@@H]12             105
4  C=C([C@H](O)CC=C(C)C)[C@H]1[C@H](OC)[C@H](OC(=O)N[C@@H](C(N)=O)C(C)C)CC[C@]12CO2              27

# ---- query compound ----
Prompt: Activity for CO[C@@H]1[C@H](OC(=O)N[C@@H](C(N)=O)C(C)C)CC[C@](O)(CCl)[C@H]1[C@@]1(C)O[C@@H]1CC=C(C)C ?
Response: 6

---

# System: Rattus norvegicus
# assay.protocol: Inhibition of MetAP2 in Sprague-Dawley rat assessed as free MetAP2 level in liver at 3 mg/kg, po after 24 hrs by ELISA relative to vehicle-treated control
# Type: functional, organism-based
# Design: dose 3 mg/kg
Calls of active or inactive are those of the source. The calls are words filed in the database; no cut-off is given here.
Hello, when you answer, please use one of the following outcomes: active, inactive

Known results for molecules:
                                   compound     label
0  CO[C@H]1[C@@H]([C@@]2(C)O[C@@H]2CC=C(C)C)[C@]2(CC[C@H]1OC(=O)N[C@@H](C(N)=O)C(C)C)CO2    active
1  CO[C@@H]1[C@H](OC(=O)N[C@@H](C(N)=O)C(C)C)CC[C@]2(O)CO[C@](C)([C@H](O)CC=C(C)C)[C@@H]12  inactive
2  C=C([C@H](O)CC=C(C)C)[C@H]1[C@H](OC)[C@H](OC(=O)N[C@@H](C(N)=O)C(C)C)CC[C@]12CO2    active

Prompt: Just curious, what result did C=C([C@H](O)CC=C(C)C)[C@H]1[C@H](OC)[C@H](OC(=O)N[C@@H](C(N)=O)C(C)C)CC[C@]1(O)CCl get here?
Response: active

Prompt: Then what about the molecule CO[C@@H]1[C@H](OC(=O)N[C@@H](C(N)=O)C(C)C)CC[C@@]2(O)CO[C@](C)([C@H](O)CC=C(C)C)[C@@H]12 ?
Response: inactive

Prompt: Then what about the molecule CO[C@@H]1[C@H](OC(=O)N[C@@H](C(N)=O)C(C)C)CC[C@](O)(CCl)[C@H]1[C@@]1(C)O[C@@H]1CC=C(C)C ?
Response: active
